Data origin: ChEMBL document CHEMBL1961873

# target.or.system: Tyrosine-protein kinase Lck (Homo sapiens);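 also: reported values are mean percent inhibition of Lck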
# assay.setup: at 0.1 µM
property.name: inhibition (%)
API: value field is a number in %; no unit string.

What value of inhibition has been reported for the following compound? N#Cc1c(NC(=O)CN2CCOCC2)sc2c1CCCC2 1.87

Ok, now COc1cc2ncn(-c3cc(OCc4ccccc4C(F)(F)F)c(C(=O)N(C)C)s3)c2cc1OC 2.04

Ok, now c1ccc(-c2nc3n(c2-c2ccc4c(c2)OCO4)CCC3)nc1 0.66

Ok, now CCCN(CCS(C)(=O)=O)Cc1ccc(-c2ccc3ncnc(Nc4ccc(OCc5cccc(F)c5)c(Cl)c4)c3c2)o1 2.06

Ok, now Fc1ccc(-c2nn3ncccc3c2-c2ccnc(Nc3ccc4c(c3)OCCO4)n2)cc1 44.7

Ok, now COc1ccc(-c2cc3c(N)ncnc3o2)cc1 0.2

Ok, now Cc1ccc2c(-c3ccnc(Nc4ccccc4)n3)c(-c3ccc(F)cc3)nn2n1 15.8

Ok, now c1cc(-c2cnn3nc(N4CCOCC4)ccc23)nc(NC2CC2)n1 1.31

Ok, now CN1CCC(n2cnc(-c3ccc(F)cc3)c2-c2ccnc(N)n2)CC1 2.45

Ok, now CNC(=O)c1cccc(C#Cc2cncnc2Nc2ccc(OCc3cccc(F)c3)c(Cl)c2)c1 1.2

Ok, now Nc1nc(-c2cccc(Cl)c2)c(-c2ccc3ncccc3n2)s1 2.31

Ok, now COc1ccc(-c2cc(-c3c[nH]nc3-c3ccccn3)ccn2)cc1 2.68

Ok, now COC(=O)Nc1nc2ccc(Oc3ccc(NC(=O)Nc4cccc(Cl)c4)cc3)cc2[nH]1 2.47

Ok, now NC(=O)c1sc(-n2cnc3ccc(C(F)(F)F)cc32)cc1OCc1ccccc1Br -0.17

Ok, now CC(=O)Nc1cccc(C#Cc2cncnc2Nc2ccc(OCc3cccc(F)c3)c(Cl)c2)c1 1.97
